Cited source: paper PMC11446282

System: B55α interactors
Test: MS analysis of B55α WT, V228A, I284A, S287A and D340A immunopurifications
Type: binding, human
Conditions: log2 ratio of interactor abundance, B55α I284A vs WT immunopurification, 4 replicates each, normalised to bait B55α
value type: log2_ratio I284_WT
Number only, no unit.

## Task Dear colleague, I am looking for the recorded log2_ratio I284_WT of the following molecule: IER5_HUMAN (protein, UniProt Q5VY09 1-327, looked up) Immediate early response gene …: MEFKLEAHRIVSISLGKIYNSRVQRGGIKLHKNLLVSLVLRSARQVYLSDPCPGLYLAGPAGTPAPPPQQQPGEPAAGPPAGWGEPPPPAARASWPETEPQPERSSVSDAPRVGDEVPVATVTGVGDVFQGGEADATEAAWSRVEGPRQAAAREAEGTAGGWGVFPEVSRAARRPCGCPLGGEDPPGTPAATPRAACCCAPQPAEDEPPAPPAVCPRKRCAAGVGGGPAGCPAPGSTPLKKPRRNLEQPPSGGEDDDAEEMETGNVANLISIFGSSFSGLLRKSPGGGREEEEGEESGPEAAEPGQICCDKPVLRDMNPWSTAIVAF
## Result 0.57

## Task Dear colleague, I am looking for the recorded log2_ratio I284_WT of the following molecule: BAG2_HUMAN (protein, UniProt O95816 2-211, looked up) BAG family molecular …: AQAKINAKANEGRFCRSSSMADRSSRLLESLDQLELRVEALREAATAVEQEKEILLEMIHSIQNSQDMRQISDGEREELNLTANRLMGRTLTVEVSVETIRNPQQQESLKHATRIIDEVVNKFLDDLGNAKSHLMSLYSACSSEVPHGPVDQKFQSIVIGCALEDQKKIKRRLETLLRNIENSDKAIKLLEHSKGAGSKTLQQNAESRFN
## Result -0.54

## Task Dear colleague, I am looking for the recorded log2_ratio I284_WT of the following molecule: AIFM2_HUMAN (protein, UniProt Q9BRQ8 2-373, looked up) Ferroptosis suppressor …: GSQVSVESGALHVVIVGGGFGGIAAASQLQALNVPFMLVDMKDSFHHNVAALRASVETGFAKKTFISYSVTFKDNFRQGLVVGIDLKNQMVLLQGGEALPFSHLILATGSTGPFPGKFNEVSSQQAAIQAYEDMVRQVQRSRFIVVVGGGSAGVEMAAEIKTEYPEKEVTLIHSQVALADKELLPSVRQEVKEILLRKGVQLLLSERVSNLEELPLNEYREYIKVQTDKGTEVATNLVILCTGIKINSSAYRKAFESRLASSGALRVNEHLQVEGHSNVYAIGDCADVRTPKMAYLAGLHANIAVANIVNSVKQRPLQAYKPGALTFLLSMGRNDGVGQISGFYVGRLMVRLTKSRDLFVSTSWKTMRQSPP
## Result -0.15

## Task Dear colleague, I am looking for the recorded log2_ratio I284_WT of the following molecule: ARP19_HUMAN (protein, UniProt P56211 2-112, looked up) cAMP-regulated phosphoprotein …: SAEVPEAASAEEQKEMEDKVTSPEKAEEAKLKARYPHLGQKPGGSDFLRKRLQKGQKYFDSGDYNMAKAKMKNKQLPTAAPDKTEVTGDHIPTPQDLPQRKPSLVASKLAG
## Result -0.06
